Assay: Compound cytotoxicity, XTT-based colorimetric assay
Type: cell-based
Conditions: human, uninfected MT2 cells, day 4, XTT
reportedMetric: CC50 at 4 days (µM)
Numbers only, in µM.

Illustrative cases are given below, each with its answer.
{"molecule": "COc1ccc(N(C)C(=O)[C@H](Cc2ccccc2)NC(=O)C(C)n2c(=O)n(C(C)C(=O)N[C@@H](Cc3ccccc3)C(=O)N(C)c3ccc(OC)cc3)c3ccccc32)cc1 (single isomer, unassigned) [Example 131]", "observed": 6.3}
{"molecule": "COc1ccc(N(C)C(=O)[C@H](Cc2ccccc2)NC(=O)Cn2c(=O)n(CC(=O)N[C@@H](Cc3ccccc3)C(=O)N(C)c3ccc(OC)cc3)c3cc(OC)ccc32)cc1 [Example 83]", "observed": 6.2}

We now examine a further molecule.
Req: Using the record for COc1ccc(N(C)C(=O)[C@H](Cc2cc(F)cc(F)c2)NC(=O)c2cc(Cl)c(Cl)cc2C(=O)N[C@@H](Cc2cc(F)cc(F)c2)C(=O)N(C)c2ccc(OC)cc2)cc1 [Example 255] , report its CC50 at 4 days.
Resp: 10

Values compiled from patent US20180072997A1.
